- System: ATP;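 also: ATP exposure 15 min at 22 °C before imaging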
- assay: switch fluorescence ratio, 500 uM ATP over buffer (Cy3 cluster intensity, sum of 5 cycles each) (fold (ratio)); higher = stronger signal-on switching upon ATP binding; sequences stand for … in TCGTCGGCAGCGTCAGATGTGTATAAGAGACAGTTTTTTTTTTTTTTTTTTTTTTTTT…TC
- assayConditions: aptamer strand: ATP DNA aptamer (quencher-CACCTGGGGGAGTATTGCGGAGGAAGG + anchor), 100 nM annealed; ATP concentration: 500 uM
sequences and their reported switch fluorescence ratio
observedProperty: switch fluorescence ratio

[[record]]
orderedresidues = "TATGCTGGAG"
experimentalvalue = 1.02

[[record]]
orderedresidues = "AAGGGCCTGG"
experimentalvalue = 0.982

[[record]]
orderedresidues = "AGATATCTA"
experimentalvalue = 0.985

[[record]]
orderedresidues = "GTGATAGGGC"
experimentalvalue = 0.999

[[record]]
orderedresidues = "TTTGTTTTTC"
experimentalvalue = 1.02

[[record]]
orderedresidues = "TCTGGTTGGT"
experimentalvalue = 1.01

[[record]]
orderedresidues = "GGGACTGGGA"
experimentalvalue = 1

[[record]]
orderedresidues = "AAGCGGGGTG"
experimentalvalue = 1.06

[[record]]
orderedresidues = "GGATTTAGGC"
experimentalvalue = 0.977

[[record]]
orderedresidues = "TAGATATCTG"
experimentalvalue = 0.974

[[record]]
orderedresidues = "CAGGGGGCCG"
experimentalvalue = 1.01

[[record]]
orderedresidues = "AATGCCTGCG"
experimentalvalue = 1.02

[[record]]
orderedresidues = "CGGGGAAATG"
experimentalvalue = 0.997

[[record]]
orderedresidues = "TGTCGGAGGT"
experimentalvalue = 1.02

[[record]]
orderedresidues = "AAAGGGGTAG"
experimentalvalue = 0.998

[[record]]
orderedresidues = "GCGGGGGTAC"
experimentalvalue = 1.11

[[record]]
orderedresidues = "TAGGATGGCC"
experimentalvalue = 0.952

